tested on: Bovine Uteral Progesterone Receptors; assay: Inhibition of 3H-progesterone binding, uterus cytosol; conditions: competitor 10^-6M; 3H-progesterone 0.15 nM
value-kind: % of Inhibition (%)

C[C@H](O)[C@H]1CC[C@H]2[C@@H]3CC[C@@H]4C[C@H](O)CC[C@]4(C)[C@H]3CC[C@]12C
0
C[C@]12CC[C@@H](O)C[C@H]1CC[C@@H]1[C@@H]2CC[C@]2(C)[C@@H](C(=O)CO)CC[C@@H]12
6
CC(C)(O)[C@H]1CC[C@H]2[C@@H]3CC[C@H]4C[C@H](O)CC[C@]4(C)[C@H]3CC[C@]12C
0

====

target: GR complex; test: [35S]TBPS binding assay (inhibition of [35S]TBPS binding, cerebral cortex P2 homogenate); set-up: species or system rat; settings: 2 nM [35S]TBPS, rat cerebral cortex P2 homogenate
value-kind: IC50 (nM)

CC(=O)[C@H]1CC[C@H]2[C@@H]3CC[C@@H]4C[C@@](O)(C#Cc5c(F)c(F)c(F)c(F)c5F)CC[C@]4(C)[C@H]3CC[C@]12C
79
CC(=O)[C@H]1CC[C@H]2[C@@H]3CC[C@@H]4C[C@@](O)(C#CCOc5ccncc5)CC[C@]4(C)[C@H]3CC[C@]12C
465
C[C@]12CC[C@H]3[C@@H](CC[C@@H]4C[C@@](O)(C#CCCO)CC[C@@H]43)[C@@H]1CC[C@@H]2C(=O)Cn1nccn1
56
CCOC(=O)c1ccc(C#CC2(O)CCC3C(CCC4C3CCC3(C)C(C(C)=O)CCC43)C2)cc1 (stereo not shown)
15
C[C@]12CC[C@@H](O)C[C@H]1CC[C@@H]1[C@@H]2CC[C@]2(C)[C@@H](C(=O)Cn3cnc4ncncc43)CC[C@@H]12
430
CC(=O)[C@H]1CC[C@H]2[C@@H]3CC[C@H]4C[C@H](O)CC[C@]4(C)[C@H]3CC[C@]12C [3α-Hydroxy-5α-pregnan-20-one, 3α-hydroxy-5α-pregnan-20-one]
37
Cc1cc(C)n(CC(=O)[C@H]2CC[C@H]3[C@@H]4CC[C@@H]5C[C@H](O)CC[C@]5(C)[C@H]4CC[C@]23C)n1
96
